test system: marmosets; test: Lipid lowering effect in marmosets assessed as reduction in plasma triglyceride level at 100 mg/kg, po administered once daily for 7 days; assay type: functional; conditions: Callitrichinae sp., in Callithrix jacchus, 168 h
inhibition in vivo at 100 mg/kg vs 20%: at or above is Condition met, below is Condition not met.

Study these solved cases before continuing.
>  <compound>
COc1cccc([C@H]2O[C@H](CCn3nnc(CC(=O)O)n3)c3cccn3-c3ccc(Cl)cc32)c1OC

>  <category.label>
Condition not met

$$$$
>  <compound>
COc1cccc([C@H]2O[C@H](CC(=O)N3CCC(CC(=O)O)CC3)c3cccn3-c3ccc(Cl)cc32)c1OC

>  <category.label>
Condition met

$$$$
>  <compound>
COc1cccc([C@H]2O[C@H](CCn3ccc(CC(=O)O)n3)c3cccn3-c3ccc(Cl)cc32)c1OC

>  <category.label>
Condition not met

$$$$

INPUT: Does COc1cccc([C@H]2O[C@H](CC(=O)N3CCC(CC(=O)O)CC3)C(=O)N(CC(C)(C)COC(C)=O)c3ccc(Cl)cc32)c1OC [LAPAQUISTAT ACETATE] have a reported inhibition in vivo at 100 mg/kg of at least 20%?
OUTPUT: Condition met

INPUT: Param item: `COc1cccc([C@H]2O[C@H](CCn3cc(CC(=O)O)nn3)c3cccn3-c3ccc(Cl)cc32)c1OC`
OUTPUT: Condition met

INPUT: Param item: `COc1cccc([C@H]2O[C@H](CCC(=O)N3CCC[C@H](C(=O)O)C3)c3cccn3-c3ccc(Cl)cc32)c1OC`
OUTPUT: Condition met
